test system: Blattella germanica; test: Insecticidal test, Blattella germanica (cockroach nymphs), residual; type: in vivo; conditions: 72 h, 100 ppm, plastic pot, 3 days, read-out: grading of mortality, BG
attribute.measured: mortality at 100 ppm

For the record FC(F)(F)Oc1ccc(C(COCc2cccc(Oc3ccccc3)c2)C(F)(F)F)cc1 (stereo not shown) [Compound 27] , what value of mortality at 100 ppm is listed for Blattella germanica? 80 to 100%

What reported mortality at 100 ppm corresponds to CCOc1ccc(C(Cl)(COCc2cccc(Oc3ccccc3)c2)C(F)(F)F)cc1 (stereo not shown) [Compound 38] on Blattella germanica? 80 to 100%

Report mortality at 100 ppm for FC(F)(F)C(COCc1cccc(Oc2ccccc2)c1)c1ccc(Cl)cc1 (stereo not shown) [Compound 16] tested on Blattella germanica. 80 to 100%

Give Blattella germanica mortality at 100 ppm for FC(F)(F)Oc1ccc(C(Cl)(COCc2cccc(Oc3ccccc3)n2)C(F)(F)F)cc1 (stereo not shown) [Compound 61] 80 to 100%

Find the measured mortality at 100 ppm: item FC(F)(F)Oc1ccc(C(COCc2cccc(Oc3ccccc3)n2)C(F)(F)F)cc1 (stereo not shown) [Compound 28] , target or system Blattella germanica. 80 to 100%

Hi! What's the reported mortality at 100 ppm for FC(F)(F)Oc1ccc(C(Cl)(COCc2cccc(Oc3ccccc3)c2)C(F)(F)F)cc1 (stereo not shown) [Compound 59] on Blattella germanica? 80 to 100%

What mortality at 100 ppm appears in the records for this compound with Blattella germanica? CCCc1ccc(C(COCc2ccc(F)c(Oc3ccccc3)c2)C(F)(F)F)cc1 (stereo not shown) [Compound 20] 80 to 100%

Request body: readout mortality at 100 ppm, system Blattella germanica, query Fc1ccc(COC=C(c2ccc(OC(F)(F)F)cc2)C(F)(F)F)cc1Oc1ccccc1 [Compound 462] . Return the value. 80 to 100%

GET /values?readout=mortality at 100 ppm&system=Blattella germanica&item= FC(F)(F)Oc1ccc(C(Cl)(COCc2cccc(Oc3ccc(Cl)cc3)c2)C(F)(F)F)cc1 (stereo not shown) [Compound 60] 80 to 100%

For the record CCOc1ccc(C(COCc2cccc(Oc3ccccc3)c2)C(F)(F)F)cc1F (stereo not shown) [Compound 14] , what value of mortality at 100 ppm is listed for Blattella germanica? 80 to 100%

Any idea what mortality at 100 ppm came out for CCOc1ccc(C(F)(COCc2cccc(Oc3ccccc3)c2)C(F)(F)F)cc1 (stereo not shown) [Compound 75] on Blattella germanica? < 50%

Please state recorded mortality at 100 ppm (tested on Blattella germanica) of COc1ccc(C(COCc2ccc(F)c(Oc3ccccc3)c2)C(F)(F)F)cc1 (stereo not shown) [Compound 29] 80 to 100%

Report mortality at 100 ppm for Fc1ccc(COCC(c2ccc(OC(F)(F)F)cc2)C(F)(F)F)cc1Oc1ccccc1 (stereo not shown) [Compound 25] tested on Blattella germanica. 80 to 100%

Observed mortality at 100 ppm on Blattella germanica for COCc1ccc(C(COCc2cccc(Oc3ccccc3)c2)C(F)(F)F)cc1 (stereo not shown) [Compound 24] , please. 80 to 100%

GET /values?readout=mortality at 100 ppm&system=Blattella germanica&item= Fc1ccc(C(Cl)(COCc2ccc(F)c(Oc3ccccc3)c2)C(F)(F)F)cc1 (stereo not shown) [Compound 51] < 50%

Query mortality at 100 ppm on Blattella germanica for CCOc1ccc(C(COCc2cccc(Oc3ccc(Cl)cc3)c2)C(F)(F)F)cc1F (stereo not shown) [Compound 13] 80 to 100%

Give Blattella germanica mortality at 100 ppm for CCOc1ccc(C(O)(COCc2c(F)c(F)c(C)c(F)c2F)C(F)(F)F)cc1 (stereo not shown) [Compound 114] < 50%

# returns recorded mortality at 100 ppm (system: Blattella germanica) for FC(F)(F)Oc1ccc(C(COCc2cccc(Oc3ccc(Cl)cc3)c2)C(F)(F)F)cc1 (stereo not shown) [Compound 26] 80 to 100%

Value wanted: mortality at 100 ppm (Blattella germanica) of entry CCOc1ccc(C(COCc2cccc(Oc3ccccc3)n2)C(F)(F)F)cc1 (stereo not shown) [Compound 4] 80 to 100%
